Reported GI50 by item:
System: IGROV-1
test_protocol: NCI tumour cell line growth inhibition, 48 h
Calls of active or inactive are those of the source. Rule as the data show it: active = GI50 up to about 1.1 µM and inactive = higher.

Request: Any idea what its GI50 is? The compound is Oc1ccc(-c2nc3ccccc3s2)cc1
Result: 25.7 µM (inactive)

Request: Any idea what its GI50 is? The compound is O=C(O)c1ccc(OCc2nc3cc(C(F)(F)F)ccc3nc2-c2ccccc2)cc1
Result: 56 µM (inactive)

====

Test system: U-251
test_protocol: NCI tumour cell line growth inhibition, 48 h
The source made the active and inactive calls. No stated cut-off is given here; in the data, active = GI50 up to about 1.1 µM and inactive = higher.
Reported GI50 by item:

COc1ccc(C=C2C(C)=NN(c3cccc(Cl)c3)C23C(Cl)C(=O)N3c2nc3ccccc3s2)cc1 (stereo unspecified); 14.6 µM (inactive)
CC1(C)Cc2c(C#N)c(N)c3c(c2CO1)C(=O)OC3=O; > 100 µM (inactive)
Cc1cn(C2CC(ON3C(=O)c4ccccc4C3=O)C(CO)O2)c(=O)[nH]c1=O (stereo unspecified); > 10 µM (inactive)
CC(C)(c1ccc(OC#N)cc1)c1ccc(OC#N)cc1; > 68.5 µM (inactive)
COC1(OC)C2(Cl)C3=CCCC=C3C1(Cl)C(Cl)=C2Cl; 30.3 µM (inactive)

Request: Any idea what its GI50 is? The compound is Cc1ncc(CO)c(CN)c1O
Result: > 100 µM (inactive)

Request: Any idea what its GI50 is? The compound is Cc1ccc2c(c1C)CC1(Cc3c(C)ccc(C)c3C1=O)C2=O (stereo unspecified)
Result: > 100 µM (inactive)

Request: Any idea what its GI50 is? The compound is O=[N+]([O-])c1cccc([N+](=O)[O-])c1S(=O)(=O)c1ccccc1
Result: 8.95 µM (inactive)

Request: Any idea what its GI50 is? The compound is CC1(C)C2CCC1(C)C(N/C(=C(/C(Cl)=C(Cl)Cl)[N+](=O)[O-])n1nnc3ccccc31)C2 (stereo unspecified)
Result: 19.2 µM (inactive)

Request: Any idea what its GI50 is? The compound is O=C1CCC(=O)C(C(=O)CCC(=O)Nc2ccc(Cl)cc2)C1 (stereo unspecified)
Result: > 100 µM (inactive)

Request: Any idea what its GI50 is? The compound is O=c1cc(C(F)(F)F)c2cc3c(cc2o1)NCCC3
Result: 23.1 µM (inactive)
